Biological target: CHRM2 (Homo sapiens)
Construct: purchased Promega (in-house HiBiT-GPCR construct library, NanoBRET)
Sequence (P08172 whole entry): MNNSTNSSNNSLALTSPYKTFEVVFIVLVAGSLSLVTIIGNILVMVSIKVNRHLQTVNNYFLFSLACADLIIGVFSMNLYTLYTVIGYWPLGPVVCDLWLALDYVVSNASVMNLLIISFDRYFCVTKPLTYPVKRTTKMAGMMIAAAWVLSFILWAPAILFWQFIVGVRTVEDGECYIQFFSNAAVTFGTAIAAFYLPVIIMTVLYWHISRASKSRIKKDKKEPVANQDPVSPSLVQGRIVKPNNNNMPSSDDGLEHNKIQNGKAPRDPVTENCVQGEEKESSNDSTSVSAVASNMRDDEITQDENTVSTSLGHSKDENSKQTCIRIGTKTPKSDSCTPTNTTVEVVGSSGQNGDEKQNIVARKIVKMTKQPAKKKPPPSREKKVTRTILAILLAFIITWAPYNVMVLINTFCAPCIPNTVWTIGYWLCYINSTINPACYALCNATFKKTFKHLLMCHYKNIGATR
Assay: NanoBRET screen HiBiT-CHRM2 in HEK293
Type: binding
Conditions: CHRM2; tracer 1μM
PROPERTY_NAME: NanoBRET Fold Response
Please reply with the value in numeric form only.

Worked examples, 2 compounds total:
O=C(CCc1ccc2n1[B-](F)(F)[N+]1=C(c3ccc[nH]3)C=CC1=C2)NCc1ccc(C(=O)NCCOCCC(=O)N[C@@H]2CC[C@@]3(O)[C@H]4Cc5ccc(O)c6c5[C@@]3(CCN4CC3CC3)[C@H]2O6)cc1 [Naltrexone-3-NB590]: 1.32
Cc1cc2c(s1)Nc1ccccc1N=C2N1CCN(CCCNC(=O)CCOCCOCCOCCOCCNC(=O)CCc2ccc3n2[B-](F)(F)[N+]2=C(c4ccc[nH]4)C=CC2=C3)CC1 [Olanzapine-a-2-NB590]: 1.30

Consider the record given below.
Which NanoBRET Fold Response is reported for this compound? CC(C)N(CC[C@H](c1ccccc1)c1cc(CCNC(=O)CCOCCOCCOCCOCCNC(=O)CCc2ccc3n2[B-](F)(F)[N+]2=C(c4ccc[nH]4)C=CC2=C3)ccc1O)C(C)C [Tolterodine-2-NB590]
1.51

* * *

# key: entry, value: NanoBRET Fold Response
Molecular target: GRM3 (Homo sapiens)
Construct: purchased Promega (in-house HiBiT-GPCR construct library, NanoBRET)
Sequence (Q14832 23-879): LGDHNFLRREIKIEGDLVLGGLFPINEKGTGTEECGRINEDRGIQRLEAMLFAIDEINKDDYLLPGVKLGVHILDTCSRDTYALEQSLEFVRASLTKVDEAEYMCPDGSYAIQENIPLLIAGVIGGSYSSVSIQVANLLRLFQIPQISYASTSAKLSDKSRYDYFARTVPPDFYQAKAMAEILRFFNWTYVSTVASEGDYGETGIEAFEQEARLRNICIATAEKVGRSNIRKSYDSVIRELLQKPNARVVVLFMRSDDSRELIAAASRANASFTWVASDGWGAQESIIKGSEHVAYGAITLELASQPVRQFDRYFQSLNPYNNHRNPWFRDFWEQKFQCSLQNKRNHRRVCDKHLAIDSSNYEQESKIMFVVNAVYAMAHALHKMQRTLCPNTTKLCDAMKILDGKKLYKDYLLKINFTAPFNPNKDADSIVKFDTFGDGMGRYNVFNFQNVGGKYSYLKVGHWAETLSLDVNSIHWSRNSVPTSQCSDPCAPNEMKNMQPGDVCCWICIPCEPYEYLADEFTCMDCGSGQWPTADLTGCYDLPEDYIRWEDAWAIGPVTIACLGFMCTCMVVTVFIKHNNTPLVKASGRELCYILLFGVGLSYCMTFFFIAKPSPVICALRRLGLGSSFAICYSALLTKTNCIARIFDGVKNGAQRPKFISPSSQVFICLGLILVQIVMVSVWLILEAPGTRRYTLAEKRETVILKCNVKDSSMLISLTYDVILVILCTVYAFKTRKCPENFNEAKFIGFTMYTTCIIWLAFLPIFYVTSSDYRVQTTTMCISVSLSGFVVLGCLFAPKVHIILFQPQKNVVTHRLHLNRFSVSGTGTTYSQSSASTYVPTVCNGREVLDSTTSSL
Experiment: NanoBRET screen HiBiT-GRM3 in HEK293
Format: binding
Details: GRM3; tracer 1μM
Reply: number alone, nothing else.

O=C(CCOCCOCCOCCOCCNC(=O)CCc1ccc2n1[B-](F)(F)[N+]1=C(c3ccc[nH]3)C=CC1=C2)NCCCN1CCN(C2=Nc3ccccc3Oc3ccc(Cl)cc32)CC1 [Loxapine-a-2-NB590]: 1.03
CCCn1c(=O)c2[nH]c(-c3ccc(OCC(=O)NCCNC(=O)CCOCCNC(=O)c4ccc(CNC(=O)CCc5ccc6n5[B-](F)(F)[N+]5=C(c7ccc[nH]7)C=CC5=C6)cc4)cc3)nc2n(CCC)c1=O [XAC-3-NB590]: 1.10
CN(C)CCC=C1c2ccccc2CCc2ccc(C(=O)NCCNC(=O)CCOCCOCCOCCOCCNC(=O)CCc3ccc4n3[B-](F)(F)[N+]3=C(c5ccc[nH]5)C=CC3=C4)cc21 [Amitriptyline-b-2-NB590]: 1.03
CC(C)N(CC[C@H](c1ccccc1)c1cc(CCNC(=O)CCOCCOCCOCCOCCNC(=O)CCc2ccc3n2[B-](F)(F)[N+]2=C(c4ccc[nH]4)C=CC2=C3)ccc1O)C(C)C [Tolterodine-2-NB590]: 1.09
Cc1cc2c(s1)Nc1ccccc1N=C2N1CCN(CCCNC(=O)CCOCCOCCOCCOCCNC(=O)CCc2ccc3n2[B-](F)(F)[N+]2=C(c4ccc[nH]4)C=CC2=C3)CC1 [Olanzapine-a-2-NB590]: 1.02

Now, please, on to the next molecule.
Return reported NanoBRET Fold Response; argument: N#CN=C(NCCCOc1cccc(CN2CCCCC2)c1)NCCNC(=O)CCOCCOCCOCCOCCNC(=O)CCc1ccc2n1[B-](F)(F)[N+]1=C(c3ccc[nH]3)C=CC1=C2 [Aminopotentidine-2-NB590]
1.03

* * *

Molecular target: EDNRA (Homo sapiens)
Construct: purchased Promega (in-house HiBiT-GPCR construct library, NanoBRET)
Sequence (P25101 21-427): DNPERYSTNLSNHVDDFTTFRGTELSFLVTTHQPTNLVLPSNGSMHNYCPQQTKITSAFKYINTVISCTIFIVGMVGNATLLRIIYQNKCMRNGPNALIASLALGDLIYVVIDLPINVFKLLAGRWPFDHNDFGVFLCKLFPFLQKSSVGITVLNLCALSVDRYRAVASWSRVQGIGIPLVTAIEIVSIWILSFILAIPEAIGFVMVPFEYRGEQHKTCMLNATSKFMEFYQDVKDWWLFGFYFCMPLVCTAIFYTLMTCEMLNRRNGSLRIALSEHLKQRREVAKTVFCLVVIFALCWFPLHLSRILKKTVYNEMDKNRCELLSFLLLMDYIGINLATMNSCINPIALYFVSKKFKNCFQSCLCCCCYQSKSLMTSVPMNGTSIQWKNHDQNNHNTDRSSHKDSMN
Test: NanoBRET screen HiBiT-EDNRA in HEK293
Type: binding
Conditions: EDNRA; tracer 1μM
PROPERTY_NAME: NanoBRET Fold Response
Kindly provide the number alone.

# example entries with known answers
O=C(CCc1ccc2n1[B-](F)(F)[N+]1=C(c3ccc[nH]3)C=CC1=C2)NCc1ccc(C(=O)NCCOCCC(=O)N[C@@H]2CC[C@@]3(O)[C@H]4Cc5ccc(O)c6c5[C@@]3(CCN4CC3CC3)[C@H]2O6)cc1 [Naltrexone-3-NB590]: 0.98
N#CN=C(NCCCOc1cccc(CN2CCCCC2)c1)NCCNC(=O)CCOCCOCCOCCOCCNC(=O)CCc1ccc2n1[B-](F)(F)[N+]1=C(c3ccc[nH]3)C=CC1=C2: 1.04
COc1ccccc1N1CCN(CCCCN2C(=O)c3ccc(CNC(=O)CCOCCOCCOCCOCCNC(=O)CCc4ccc5n4[B-](F)(F)[N+]4=C(c6ccc[nH]6)C=CC4=C5)cc3C2=O)CC1: 1.05
CC(C)N(CC[C@H](c1ccccc1)c1cc(CCNC(=O)CCOCCOCCOCCOCCNC(=O)CCc2ccc3n2[B-](F)(F)[N+]2=C(c4ccc[nH]4)C=CC2=C3)ccc1O)C(C)C: 1.01

Next up:
Entry under review: Cc1nc2n(c(=O)c1CCN1CCC(c3noc4cc(F)ccc34)CC1)CCCC2OC(=O)NCCOCCOCCOCCOCCNC(=O)CCc1ccc2n1[B-](F)(F)[N+]1=C(c3ccc[nH]3)C=CC1=C2 (centres unmarked) . Reported NanoBRET Fold Response?
0.97
